Values from patent US20230174596A1

targetOrSystem: T1, human VEGF-A (human, UniProt P15692-4 34-135, limits assumed)
T1 sequence (looked up): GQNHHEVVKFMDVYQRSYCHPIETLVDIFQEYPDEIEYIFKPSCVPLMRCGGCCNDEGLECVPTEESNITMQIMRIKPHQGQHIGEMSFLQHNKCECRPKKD
testProtocol: cell-based or functional assay
fold improvement relative to variant 9.54.90 (cellular IC50) vs 1 fold: less than gives t; not less than gives f.

Query :: Given the entry GCNIMLPFWGCGRDFECMNQCICQYYQSCG (designed binder) [VEGF_CKP9.54.90.13] , would its reported fold improvement relative to variant 9.54.90 (cellular IC50) be below 1 fold?
Result :: f

Query :: Given the entry CNIMLPYWGCGRDFECLAGCVCQYYQSC (designed binder) [VEGF_CKP9.54.90 F7Y Δ2G] , would its reported fold improvement relative to variant 9.54.90 (cellular IC50) be below 1 fold?
Result :: t

Query :: Given the entry GCNIMLPFWGCGRDFECMEQCICQYYQSCG (designed binder) [VEGF_CKP9.54.90.67] , would its reported fold improvement relative to variant 9.54.90 (cellular IC50) be below 1 fold?
Result :: f

Query :: Given the entry GCDVMQPYWGCGPDIDCLSNCICHWYNSCG (designed binder) [VEGF_CKP9.63.12.12] , would its reported fold improvement relative to variant 9.54.90 (cellular IC50) be below 1 fold?
Result :: f

Query :: Given the entry GCNIMLPYWGCGRDFECFYECICQYYQSCG (designed binder) [VEGF_CKP9.54.90.62.F8Y] , would its reported fold improvement relative to variant 9.54.90 (cellular IC50) be below 1 fold?
Result :: f

Query :: Given the entry GCNIMLPFWGCGRDFECFYECICQYYQSCG (designed binder) [VEGF_CKP9.54.90.62] , would its reported fold improvement relative to variant 9.54.90 (cellular IC50) be below 1 fold?
Result :: f

Query :: Given the entry GCNIMLPFWGCGRDFECFINCICQYYQSCG (designed binder) [VEGF_CKP9.54.90.44] , would its reported fold improvement relative to variant 9.54.90 (cellular IC50) be below 1 fold?
Result :: f

Query :: Given the entry GCNIMLPFWGCGRDFECMSDCICQYYQSCG (designed binder) [VEGF_CKP9.54.90.12] , would its reported fold improvement relative to variant 9.54.90 (cellular IC50) be below 1 fold?
Result :: f

Query :: Given the entry GCNIMLPFWGCGRDFECMQTCICQYYQSCG (designed binder) [VEGF_CKP9.54.90.25] , would its reported fold improvement relative to variant 9.54.90 (cellular IC50) be below 1 fold?
Result :: f

Query :: Given the entry GCNIMLPYWGCGRDFECMNQCICQYYQSCG (designed binder) [VEGF_CKP9.54.90.13.F8Y] , would its reported fold improvement relative to variant 9.54.90 (cellular IC50) be below 1 fold?
Result :: t
